Test system: NCI-H23
test.summary: NCI tumour cell line growth inhibition, 48 h
The source made the active and inactive calls. Rule as the data show it: active = GI50 up to about 1.1 µM and inactive = higher.
property.label: GI50

Use these answered entries as a reference point.
CSc1nc2[nH]c(=O)c(C)nc2c(=O)[nH]1 : > 100 µM (inactive)
CC(O)(/C=C/c1ccccc1)P(=O)(O)c1ccccc1 (stereo unspecified) : > 100 µM (inactive)
CC(C)Oc1c(-c2ccc(F)cc2)c(O)c2c3c1oc(=O)n3C=CC2C (stereo unspecified) : 11.8 µM (inactive)
O=C(O)CCC(=O)c1ccc[nH]1 : > 100 µM (inactive)

Field request: GI50 | item: COC(=O)C1SC[C@H]2C(=O)N(c3ccccc3)C(=O)N12 (stereo partly specified)
> 100 µM (inactive)

Given the molecule C=CCOc1ccc(C2C(C(=O)OC)C(=O)CC(O)(c3ccccc3)C2C(=O)OC)cc1OC (stereo unspecified) , what is its reported GI50?
31.8 µM (inactive)

* * *

Test system: SK-MEL-28
test.summary: NCI tumour cell line growth inhibition, 48 h
Calls of active or inactive are those of the source. Rule as the data show it: active = GI50 up to about 1.1 µM and inactive = higher.
Please answer using one outcome listed in label 1 for active, label 0 for inactive

Give the logged outcome of this assay for the following molecule: CCC(c1ccc(OC)cc1)C1NC(=S)NC1=O (stereo unspecified)
label 0

Dear colleague, could you share the recorded outcome for "Cc1oc2c(c1C)S(=O)(=O)C(C#N)=C(N(C)C)N2" when you have a moment?
label 0

In this assay, the call recorded for "COc1cccc(-c2cc(O)c3cc(N4CCCC4)ccc3n2)c1" was what?
label 1

State the result this test recorded for "Cc1cc2c(=O)c3ccc(Cl)cc3[nH]c2c(C(=O)O)c1C" .
label 0

Hey, what did the test say about "CCc1nc2cc(/N=N/c3c(O)ccc4ccccc34)ccc2[nH]1" ?
label 0

Hi team, can someone confirm the assay call for "CC1(C)O[C@@H]([C@H](O)CO)[C@H](O)[C@@H](C2SCCCS2)O1" ?
label 0

Answer briefly: the call reported for COC(=O)C(Cc1c[nH]c2ccccc12)NC(=O)C(Cc1c[nH]c2ccccc12)NC(=O)OCc1ccccc1 (stereo unspecified) in this assay.
label 0

Please share the test call associated with "CC(C)=CCc1c(O)cc2oc(-c3ccc(O)cc3O)cc(=O)c2c1O" .
label 0

* * *

Attribute: GI50
Tested on: UO-31
test.summary: NCI tumour cell line growth inhibition, 48 h
Active and inactive are the calls of the source. No stated cut-off is given here; in the data, active = GI50 up to about 1.1 µM and inactive = higher.

These solved cases illustrate the format of a correct answer.
COc1ccc(/C=c2\c(=O)[nH]c3nc4ccccc4c(=O)n23)cc1 : 44.7 µM (inactive)
Cc1ccc(C2NC(=O)c3ccccc3N2)c(C)c1 (configuration not stated) : 6.81 µM (inactive)
CCc1ccccc1NC(=O)C1=C(C)NC(C)=C(C(=O)Nc2ccccc2CC)C1c1ccc2c(c1)OCO2 : 18.5 µM (inactive)
O=C(c1ccc(/N=C/c2ccccc2O)cc1)c1ccc(/N=C/c2ccccc2O)cc1 : > 100 µM (inactive)
COC1=CC(=O)C2C(C1=O)[C@@H]1c3ccccc3OC[C@H]21 (some centres not stated) : > 100 µM (inactive)
N=C(N)NCCN1CC2CCC(CC2)C1 : > 100 µM (inactive)

// switching to the query compound
Looking for the measured GI50 of "COC[C@@H](/N=C/N1CCc2cc(OC)c(OC)cc2[C@@H]1C)C(C)(C)C" , can you help?
> 100 µM (inactive)

* * *

Tested on: SNB-19
test.summary: NCI tumour cell line growth inhibition, 48 h
The source made the active and inactive calls. Rule as the data show it: active = GI50 up to about 1.1 µM and inactive = higher.
Each entry below carries its recorded GI50.

OC(c1nc2ccccc2[nH]1)C(O)C(O)C(O)c1nc2ccccc2[nH]1 (stereo unspecified) : > 100 µM (inactive)
COC(=O)/N=[N+](\[O-])C(c1ccc(Cl)cc1)c1ccc(Cl)cc1 : 50.4 µM (inactive)
COc1ccc(-c2onc(-c3ccc([N+](=O)[O-])cc3)c2C2=NCCN2)cc1 : 50.5 µM (inactive)

Entry CCC(C)CCOC(=O)c1ccc(/N=C\c2ccc(/C=N/c3ccc(C(=O)OCCC(C)CC)cc3)cc2)cc1 (stereo unspecified) : reported GI50 = ?
> 100 µM (inactive)

Value lookup for GI50; key = "c1ccc2cc3n[se]nc3cc2c1"
81.1 µM (inactive)

Return reported GI50; argument: COc1ccc2c(c1)CC1Cc3ccccc3CCN1C2 (stereo unspecified)
55 µM (inactive)

Return reported GI50; argument: COc1nc2ccc(CNc3ccc(C(=O)NC(CCC(=O)O)C(=O)O)cc3)cc2nc1OC (stereo unspecified)
> 100 µM (inactive)

Report GI50 for "CN(C)Cc1cc(C(=O)/C=C/c2ccc(Cl)c(Cl)c2)cc(CN(C)C)c1O" please.
2.56 µM (inactive)

Can you share its GI50? I mean this compound: "CCc1ccccc1NC(=O)C1=C(C)NC(C)=C(C(=O)Nc2ccccc2CC)C1c1ccc2c(c1)OCO2"
49.3 µM (inactive)

May I ask what GI50 has been recorded for "COc1cc(/C=C/C=C2\CC/C(=C\C=C\c3ccc(O)c(OC)c3)C2=O)ccc1O" ?
> 100 µM (inactive)

Given the entry "CCC(=O)O[C@H]1CC[C@H]2[C@@H]3CCC4=C/C(=N/OC(=O)c5cccc6c(=O)c7ccccc7[nH]c56)CC[C@]4(C)[C@H]3CC[C@]12C" , report its measured GI50.
51.4 µM (inactive)

* * *

The following compounds are shown together with reported GI50 values.
Tested on: SNB-78
test.summary: NCI tumour cell line growth inhibition, 48 h
The source made the active and inactive calls. No stated cut-off is given here; in the data, active = GI50 up to about 1.1 µM and inactive = higher.

In the examples that follow, each entry is paired with its recorded GI50.
C=Cc1ccc(C)[n+](C[Si](C)(C)O[Si](C)(C)C[n+]2cc(C=C)ccc2C)c1 : > 100 µM (inactive)
Cc1ccc(C)c(NC(=O)c2cccc([N+](=O)[O-])c2O)c1 : 14.1 µM (inactive)

Next:
Please state recorded GI50 (tested on SNB-78) of "CN(C)C1(C#N)CCC2(CC1)OCCO2"
> 100 µM (inactive)

* * *

System: SF-539
test.summary: NCI tumour cell line growth inhibition, 48 h
Calls of active or inactive are those of the source. No stated cut-off is given here; in the data, active = GI50 up to about 1.1 µM and inactive = higher. Peptide text beside a SMILES is read from it. * marks the point of attachment. Cbz = O=C(OCc1ccccc1)*; CH2Cl = ClC*
property.label: GI50

CC(C)CC(NC(=O)OCc1ccccc1)C(=O)NC(Cc1ccccc1)C(=O)CCl (stereo not drawn) (Cbz-Leu-Phe-CH2Cl; configuration not given here) : 3.32 µM (inactive)
O=C1C(Br)=CC2(C=C1Br)CCNC1=C2C(=O)c2[nH]cnc2C1=O : 18.1 µM (inactive)
O=C1c2ccccc2-c2nc3ccncc3n21 : > 100 µM (inactive)
COC[C@@H](/N=C/N1CCc2cc(OC)c(OC)cc2[C@@H]1C)C(C)(C)C : > 100 µM (inactive)
O=C(CCC(=O)C(C(=O)c1ccccc1)c1ccccc1)Nc1cccc(C(F)(F)F)c1 (stereo not given) : > 100 µM (inactive)

I have this molecule here, "N#Cc1nc(/C=C/c2ccccc2)oc1N" , and I need its recorded GI50.
> 100 µM (inactive)

Request the reported GI50 associated with "O=C(/C=C/c1cccc([N+](=O)[O-])c1)c1cccnc1"
21.1 µM (inactive)

Endpoint output: GI50 of "NS(=O)(=O)c1ccc(NNC(=O)c2cccc3c(=O)c4ccccc4[nH]c23)cc1" . Value?
> 100 µM (inactive)

Given the molecule O=C1C=CC=CC2CC=C[C@@H](O)C12 (stereo not given in full) , what is its reported GI50?
24.5 µM (inactive)

Any idea what GI50 was measured for "CN(C)Cc1cc(C(=O)/C=C/c2ccc(Cl)c(Cl)c2)cc(CN(C)C)c1O" ?
2.77 µM (inactive)

* * *

Tested on: OVCAR-3
test.summary: NCI tumour cell line growth inhibition, 48 h
Active and inactive are the calls of the source. Rule as the data show it: active = GI50 up to about 1.1 µM and inactive = higher. Where a SMILES comes first, the peptide text is derived from it. The star is where a group is joined. Fmoc = O=C(OCC1c2ccccc2-c2ccccc21)*; OBn = c1ccc(CO*)cc1; tBu = CC(C)(C)*
property.label: GI50

COC(=O)CNC(=O)CCC(C)[C@H]1CCC2C3C(C[C@H](OC(C)=O)[C@@]21C)[C@@]1(C)CCC2(C[C@H]1C[C@H]3OC(C)=O)OOC1(CC[C@]3(C)C4C[C@H](OC(C)=O)[C@@]5(C)C(CC[C@@H]5C(C)CCC(=O)NCC(=O)OC)C4[C@H](OC(C)=O)C[C@@H]3C1)OO2 (some centres not stated) : 3.03 µM (inactive)
O=C1NC(=O)C2C1N(Cc1ccccc1)C(=O)N2Cc1ccccc1 (configuration not stated) : > 100 µM (inactive)
O=C1CCN2C(=O)CCN12 : > 100 µM (inactive)
CCOC(=O)C12CCCC1(O)N(NC(=O)OC)C(C)=C2C(=O)OC (configuration not stated) : > 10 µM (inactive)
CC(OC(C)(C)C)C(NC(=O)OCC1c2ccccc2-c2ccccc21)C(=O)NC(Cc1ccccc1)C(=O)OCc1ccccc1 (configuration not stated) (Fmoc-Thr(tBu)-Phe-OBn; configuration not given here) : > 100 µM (inactive)
C/C(=C1/N=C(c2cc([N+](=O)[O-])ccc2Cl)N(c2ccc(Br)cc2)C1=O)c1cc2ccccc2oc1=O : 49.2 µM (inactive)

Field: next molecule
Please give the measured GI50 for this molecule: "Nc1c(C(=O)c2ccc(Cl)c(Cl)c2)[nH]c(NCc2ccccc2)c1C(=S)Nc1ccccc1"
17.5 µM (inactive)

All values here come from ChEMBL document CHEMBL1201862.
